- Tested on: HCC-1954
- PROTOCOL: % viability under drug (72 h drug + 72 h recovery), miRNA mimic relative to NTC in DMSO; higher = more surviving cells
- CONDITION_CONTEXT: drug used in drug arm: GDC-0980 2.5 uM; treatment: drug
Known % viability under drug of a selection of sequences
Form field: result (number plus unit)

Incoming: What does the record list as % viability under drug for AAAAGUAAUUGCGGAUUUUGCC ?
Outgoing: 3.99%

Incoming: What does the record list as % viability under drug for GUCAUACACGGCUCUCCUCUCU ?
Outgoing: 1.04%

Incoming: What does the record list as % viability under drug for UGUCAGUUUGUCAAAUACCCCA ?
Outgoing: 0.617%

Incoming: What does the record list as % viability under drug for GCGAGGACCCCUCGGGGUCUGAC ?
Outgoing: 2.54%

Incoming: What does the record list as % viability under drug for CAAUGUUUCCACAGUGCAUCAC ?
Outgoing: 1.26%

Incoming: What does the record list as % viability under drug for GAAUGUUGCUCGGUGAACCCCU ?
Outgoing: 0.831%

* * *

- System: PC9
- PROTOCOL: cell count fold change with erlotinib, miRNA mimic vs non-targeting control (log2 ratio); higher = more drug-tolerant survivors than NTC
- CONDITION_CONTEXT: erlotinib 1 µM; 72 h drug + 72 h drug-free recovery; perturbation: miRNA mimic
Known cell count fold change with erlotinib of a selection of sequences
Output spec: single numeric token, no unit.

A selection of reference data follows.
In [3]: df
Out[3]:
           sequence_chain  result_value
0   UGAGAUGAAGCACUGUAGCUC         -1.52
1  CUCUAGAGGGAAGCACUUUCUC        -0.525

Incoming: What does the record list as cell count fold change with erlotinib for UGUGCGCAGGGAGACCUCUCCC ?
Outgoing: -1.77

* * *

- System: MKN-45
- PROTOCOL: % viability under drug (72 h drug + 72 h recovery), miRNA mimic relative to NTC in DMSO; higher = more surviving cells
- CONDITION_CONTEXT: drug used in drug arm: crizotinib 1 uM; treatment: drug
RECORDED_ENDPOINT: % viability under drug (%)
The reply should be a number in %, with the unit left off.

A selection of reference data follows.
>>> df
            sequence_chain       recorded_endpoint  output_unit  result_value
0   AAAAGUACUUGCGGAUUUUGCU  % viability under drug            %           4.2
1   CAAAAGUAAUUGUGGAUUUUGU  % viability under drug            %          1.49
2  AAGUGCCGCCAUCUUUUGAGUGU  % viability under drug            %         0.444
3   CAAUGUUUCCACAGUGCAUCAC  % viability under drug            %         0.794
4   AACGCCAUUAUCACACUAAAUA  % viability under drug            %          1.35
5   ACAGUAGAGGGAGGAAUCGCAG  % viability under drug            %         0.428
6  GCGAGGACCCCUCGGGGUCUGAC  % viability under drug            %          1.84
7   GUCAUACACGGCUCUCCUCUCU  % viability under drug            %         0.526
8   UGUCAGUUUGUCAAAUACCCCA  % viability under drug            %          2.37
9    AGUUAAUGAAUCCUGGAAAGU  % viability under drug            %          1.55

Incoming: What does the record list as % viability under drug for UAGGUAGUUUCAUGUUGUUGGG ?
Outgoing: 1.52

Incoming: What does the record list as % viability under drug for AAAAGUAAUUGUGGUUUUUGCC ?
Outgoing: 4.45

Incoming: What does the record list as % viability under drug for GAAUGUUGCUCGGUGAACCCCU ?
Outgoing: 0.355

Incoming: What does the record list as % viability under drug for GAGCCAGUUGGACAGGAGC ?
Outgoing: 1.7

Incoming: What does the record list as % viability under drug for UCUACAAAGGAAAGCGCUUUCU ?
Outgoing: 1.63

Incoming: What does the record list as % viability under drug for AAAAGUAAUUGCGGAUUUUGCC ?
Outgoing: 4.35

* * *

- Test system: PC9
- PROTOCOL: cell count fold change with erlotinib, miRNA mimic vs non-targeting control (log2 ratio); higher = more drug-tolerant survivors than NTC
- CONDITION_CONTEXT: erlotinib 1 µM; 72 h drug + 72 h drug-free recovery; perturbation: miRNA mimic
Mark f for cell count fold change with erlotinib values under -1, and t for everything at or above.

As a guide, the following entries are already answered.
>>> print(df.to_string())
            sequence_chain  assigned_category
0  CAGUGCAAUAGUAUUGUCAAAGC                  f
1   CGAAAACAGCAAUUACCUUUGC                  f

Incoming: Would you say UGGUUGUAGUCCGUGCGAGAAUA shows cell count fold change with erlotinib at minimum -1?
Outgoing: t

Incoming: Would you say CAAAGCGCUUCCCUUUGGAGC shows cell count fold change with erlotinib at minimum -1?
Outgoing: t

Incoming: Would you say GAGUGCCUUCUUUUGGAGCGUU shows cell count fold change with erlotinib at minimum -1?
Outgoing: f

Incoming: Would you say UGCCUGUCUACACUUGCUGUGC shows cell count fold change with erlotinib at minimum -1?
Outgoing: f

Incoming: Would you say AAAGUGCUUCUCUUUGGUGGGU shows cell count fold change with erlotinib at minimum -1?
Outgoing: t

Incoming: Would you say UACGUCAUCGUUGUCAUCGUCA shows cell count fold change with erlotinib at minimum -1?
Outgoing: t

Incoming: Would you say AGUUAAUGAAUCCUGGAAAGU shows cell count fold change with erlotinib at minimum -1?
Outgoing: f

Incoming: Would you say AAAGUGCUGCGACAUUUGAGCGU shows cell count fold change with erlotinib at minimum -1?
Outgoing: t

Incoming: Would you say AGUUUUGCAGGUUUGCAUUUCA shows cell count fold change with erlotinib at minimum -1?
Outgoing: t

Incoming: Would you say UCGGAUCCGUCUGAGCUUGGCU shows cell count fold change with erlotinib at minimum -1?
Outgoing: t

Incoming: Would you say UCCAGCAUCAGUGAUUUUGUUG shows cell count fold change with erlotinib at minimum -1?
Outgoing: f

Incoming: Would you say ACUGUAGUAUGGGCACUUCCAG shows cell count fold change with erlotinib at minimum -1?
Outgoing: f

Incoming: Would you say AGGCGGAGACUUGGGCAAUUG shows cell count fold change with erlotinib at minimum -1?
Outgoing: f

Incoming: Would you say GAAGGCGCUUCCCUUUAGAGCG shows cell count fold change with erlotinib at minimum -1?
Outgoing: f

Incoming: Would you say AAGUGUGCAGGGCACUGGU shows cell count fold change with erlotinib at minimum -1?
Outgoing: f

Incoming: Would you say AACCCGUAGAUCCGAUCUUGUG shows cell count fold change with erlotinib at minimum -1?
Outgoing: t

Incoming: Would you say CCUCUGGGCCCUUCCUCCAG shows cell count fold change with erlotinib at minimum -1?
Outgoing: t

Incoming: Would you say UCGAGGAGCUCACAGUCUAGU shows cell count fold change with erlotinib at minimum -1?
Outgoing: t

* * *

- Tested on: SK-BR-3
- PROTOCOL: % viability under drug (72 h drug + 72 h recovery), miRNA mimic relative to NTC in DMSO; higher = more surviving cells
- CONDITION_CONTEXT: drug used in drug arm: lapatinib 1 uM; treatment: drug
Known % viability under drug of a selection of sequences
The reply should be a number in %, with the unit left off.

A selection of reference data follows.
>>> print(df.to_string())
           sequence_chain  result_value
0  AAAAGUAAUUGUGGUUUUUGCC          39.2
1  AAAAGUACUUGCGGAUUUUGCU          49.8
2  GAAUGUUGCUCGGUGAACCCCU          10.1
3  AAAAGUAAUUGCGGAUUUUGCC          45.7
4  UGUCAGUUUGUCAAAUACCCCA          27.4
5  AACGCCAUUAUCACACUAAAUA          11.5
6  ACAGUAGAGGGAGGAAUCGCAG          25.7
7     GAGCCAGUUGGACAGGAGC          48.1
8  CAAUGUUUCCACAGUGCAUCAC          9.29
9  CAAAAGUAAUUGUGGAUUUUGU          20.2

Incoming: What does the record list as % viability under drug for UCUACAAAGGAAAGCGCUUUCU ?
Outgoing: 26

Incoming: What does the record list as % viability under drug for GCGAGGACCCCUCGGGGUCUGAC ?
Outgoing: 16.6

Incoming: What does the record list as % viability under drug for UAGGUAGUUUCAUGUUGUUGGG ?
Outgoing: 16.1
